Test system: Saccharomyces cerevisiae BY4741 SeMeCo community
ASSAY COMMENT: z-score of subpopulation abundance vs DMSO median, subpopulation auxotrophic for M; higher = larger share of this subpopulation than in DMSO controls
APPLIED CONDITIONS: 10 µM; 24 h; SM minimal medium; subpopulation (auxotrophy): M
QUANTITY NAME: z-score of subpopulation abundance
Please reply with the number alone, leaving off any unit.

Record excerpt, results attached:
- MOLECULE: "C=C1CCN([C@H](C)[C@](O)(Cn2cncn2)c2ccc(F)cc2F)CC1 [Efinaconazole]"
  z-score of subpopulation abundance: 2.69
- MOLECULE: "O=S1(=O)CCN(CN2CCS(=O)(=O)NC2)CN1 [Taurolidine]"
  z-score of subpopulation abundance: -0.34
- MOLECULE: "CC(=O)O[C@]1(C(C)=O)CC[C@H]2[C@@H]3C[C@H](C)C4=CC(=O)CC[C@]4(C)[C@H]3CC[C@@]21C [Medroxyprogesterone acetate]"
  z-score of subpopulation abundance: 0.21

// moving on: another record for z-score of subpopulation abundance
z-score of subpopulation abundance for CCc1nc(N)nc(N)c1-c1ccc(Cl)cc1 [Pyrimethamine] ?
-0.13
